Provenance of the data: patent US6875771B2

- test-system: human 5-HT6 receptor (Homo sapiens, UniProt P50406)
- Sequence (P50406 whole entry): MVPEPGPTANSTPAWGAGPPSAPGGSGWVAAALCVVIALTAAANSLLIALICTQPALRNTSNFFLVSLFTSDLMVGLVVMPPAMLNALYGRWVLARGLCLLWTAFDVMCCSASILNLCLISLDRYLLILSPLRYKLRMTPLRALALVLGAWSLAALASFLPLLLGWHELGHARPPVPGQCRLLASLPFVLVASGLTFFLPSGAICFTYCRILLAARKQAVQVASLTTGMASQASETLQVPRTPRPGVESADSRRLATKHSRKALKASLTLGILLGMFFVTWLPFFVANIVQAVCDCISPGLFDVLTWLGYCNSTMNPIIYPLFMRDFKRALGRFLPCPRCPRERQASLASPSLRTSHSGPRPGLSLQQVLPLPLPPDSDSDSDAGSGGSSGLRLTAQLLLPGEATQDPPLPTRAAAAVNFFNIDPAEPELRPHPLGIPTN
pIC50: −log10 of the molar value.
readout-kind: pIC50

Consider the reported pIC50 for these molecules:
> print(dat)
                               smiles.entry        result
1  CCc1ccn2c(=N)c(S(=O)(=O)c3ccccc3)c(SC)nc2c1  7.00 to 7.30
2  CSc1nc2ccccn2c(=N)c1S(=O)(=O)c1ccc(F)cc1        > 7.70
3  CSc1nc2ccccn2c(=N)c1S(=O)(=O)c1ccc(C(C)(C)C)cc1  7.00 to 7.30
4     COc1nc2ccccn2c(=N)c1S(=O)(=O)c1ccccc1        > 7.70
5     CNc1nc2ccccn2c(=N)c1S(=O)(=O)c1ccccc1        > 7.70

pIC50 value, target or system human 5-HT6 receptor (Homo sapiens, UniProt P50406), for `Cc1ccc(Nc2nc3ccc(C)cn3c(=N)c2S(=O)(=O)c2ccccc2)nc1` : 7.00 to 7.30

Reading of pIC50 for `CN=c1c(S(=O)(=O)c2ccccc2)c(SC)nc2ccccn12` with human 5-HT6 receptor (Homo sapiens, UniProt P50406): 6.00 to 7.00

Tested on human 5-HT6 receptor (Homo sapiens, UniProt P50406): `CSc1nc2ccccn2c(=N)c1S(=O)(=O)c1ccc2ccccc2c1` . Observed pIC50: 7.00 to 7.30

Record for `CSc1nc2c(C)cc(Cc3ccccc3)cn2c(=N)c1S(=O)(=O)c1ccccc1` under target or system human 5-HT6 receptor (Homo sapiens, UniProt P50406): pIC50 reported as 7.00 to 7.30

###

- test-system: human 5-HT6 receptor (Homo sapiens, UniProt P50406)
pIC50: −log10 of the molar value.
readout-kind: pIC50

Some solved cases for reference:
> print(dat)
                                   molecule        result
1  CSc1nc2ccc(F)cn2c(=N)c1S(=O)(=O)c1ccccc1 [Example 21]        > 7.70
2  CSc1nc2c(Br)cc(C)cn2c(=N)c1S(=O)(=O)c1ccccc1 [Example 15]  6.00 to 7.00
3  CSc1nc2ccccn2c(=N)c1S(=O)(=O)c1ccccc1Cl [Example 7]        > 7.70
4  CSc1nc2c3ncccc3ccn2c(=N)c1S(=O)(=O)c1ccccc1 [Example 24]  7.00 to 7.30

The molecule listed as CCOc1nc2ccccn2c(=N)c1S(=O)(=O)c1ccccc1 [Example 31] shows pIC50 equal to > 7.70
